Exercise: state measured IC50 for each of the molecules provided.
- assayedTarget: hepatic lipase (HL) (Homo sapiens)
- Construct: made in house; host or cells: COS cells (conditioned medium, partially purified)
- Sequence (P11150 23-499): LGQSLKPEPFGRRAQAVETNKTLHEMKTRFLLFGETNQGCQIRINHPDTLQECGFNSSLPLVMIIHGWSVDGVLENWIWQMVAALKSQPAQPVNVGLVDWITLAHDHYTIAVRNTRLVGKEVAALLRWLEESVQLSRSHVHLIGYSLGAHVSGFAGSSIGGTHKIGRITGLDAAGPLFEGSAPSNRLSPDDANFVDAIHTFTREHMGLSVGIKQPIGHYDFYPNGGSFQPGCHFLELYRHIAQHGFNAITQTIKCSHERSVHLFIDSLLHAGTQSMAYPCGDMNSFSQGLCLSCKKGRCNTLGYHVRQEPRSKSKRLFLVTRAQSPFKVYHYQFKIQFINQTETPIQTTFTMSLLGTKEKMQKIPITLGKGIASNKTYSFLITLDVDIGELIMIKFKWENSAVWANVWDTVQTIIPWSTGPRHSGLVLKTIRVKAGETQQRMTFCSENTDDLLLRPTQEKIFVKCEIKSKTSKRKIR
- protocolDetails: Hepatic lipase (HL) enzymatic assay, fluorescent substrate A10070 in DMPG vesicles
- Type: biochemical
- conditionInfo: HL partially purified from conditioned media of COS cells; compound preincubated 30 min at 37° C; read-out: HL IC50

molecule: Cc1noc(C)c1-c1ccc2nc(C(c3nnc(CNS(N)(=O)=O)o3)S(C)(=O)=O)sc2c1 (stereo not shown) [Example 117]
assayedTarget: hepatic lipase (HL) (Homo sapiens)
IC50: 230 nM
--
molecule: CS(=O)(=O)C(c1nnc(CS(N)(=O)=O)o1)c1nc2c(F)cc(-c3ccccc3)cc2s1 (stereo not shown) [Example 163]
assayedTarget: hepatic lipase (HL) (Homo sapiens)
IC50: < 10 nM

Go through the items and report each one's IC50.
1. COC1CN(C(=O)c2cccc(-c3ccc4nc(C(c5nnc(CNS(N)(=O)=O)o5)S(C)(=O)=O)sc4c3)c2)C1 (stereo not shown) [Example 267]
2. Cn1cc(-c2ccc3nc(C(c4nnc(CNC(=O)OC(C)(C)C)o4)S(C)(=O)=O)sc3c2)cn1 (stereo not shown) [Example 98]
3. Cc1nc(C)c(-c2ccc3nc(C(c4nnc(CC5SC(=O)NC5=O)o4)S(C)(=O)=O)sc3c2)s1 (stereo not shown) [Example 102]
4. CS(=O)(=O)C(c1nnc(C[C@@H]2NS(=O)(=O)NC2=O)o1)c1nc2ccc(-c3ccc(C(=O)N4CCOCC4)cc3)cc2s1 (stereo partly shown) [Example 111]
5. CC1(Cc2nnc(C(c3nc4ccc(-c5cccc(C(=O)NC6CC(F)(F)C6)c5)cc4s3)S(C)(=O)=O)o2)NC(=O)NC1=O (stereo not shown) [Example 223]

1. 41 nM
2. > 25000 nM
3. < 10 nM
4. 629 nM
5. 55 nM
